experiment_notes: qHTS RealTime-Glo MT Cell Viability Assay in HEK293 cells - 40 hour (AID 1224874); further: on the % scale 0 is the no-effect control and ±100 the full control effect; nearly all actives have a fitted effect of over 50% in size
conditions: RealTime-Glo luminescence; active compounds read low
Source text: U.S. Tox21 Program National Center for Advancing Translational Sciences [NCATS] NIH Chemical Genomics Center [NCGC] U.S. Environmental Protection Agency [EPA] National Institutes of Environmental Health Sciences [NIEHS] National Toxicology Program [NTP] U.S. Food and Drug Administration [FDA] Tox21 Assay Overview: Measure of cell viability is critical in the cell-base assay. Analysis of cell viability is necessary for the characterization of cell responses to cytotoxic drugs and environmental stress. […]
Inconclusive results are not listed.
max response values, listed per item
// return numeric value only (unit: %, not printed)

molecule	max response, %
CCCCCC[C@@H](O)C/C=C\CCCCCCCC(=O)OCC(O)CO (stereo partly specified)	10.7
OCCOCC#CCOCCO	7.98
FC(F)(F)c1ccccc1Cl	-1.41
N#[N+]c1ccc2c(S(=O)(=O)[O-])cccc2c1O	-19.6
O=C=Nc1ccc(Cl)c(Cl)c1	-3.97

q: Which max response value is on record for Cc1ccc(CO)cc1 ?
a: 18.5

q: Please do the same for CCC(C)(C)OC as well.
a: 7.38

q: Quick one: CC1=C(Br)C(=O)C(Br)=C/C1=C(/c1ccccc1S(=O)(=O)O)c1cc(Br)c(O)c(Br)c1C
a: 1.66

q: Thanks! And Cc1cc2c(OCC(CNC(C)(C)C)OC(=O)c3ccccc3)cccc2[nH]1 (stereo unspecified) ?
a: -21.5

q: Follow-up item: Oc1cc2c(cc1O)[C@H]1c3ccc(O)c(O)c3OC[C@@]1(O)C2
a: -26.5

q: Another molecule to check: CC(C)Nc1cccnc1N1CCN(C(=O)c2cc3cc(NS(C)(=O)=O)ccc3[nH]2)CC1
a: -29

q: What would you report for CC1(C)[C@@H](OC(=O)CCC(=O)O)CC[C@]2(C)[C@H]3C(=O)C=C4[C@@H]5C[C@@](C)(C(=O)O)CC[C@]5(C)CC[C@@]4(C)[C@]3(C)CC[C@@H]12 ?
a: 10.8

q: # repeat for C[C@@H](O)[C@H]1C(=O)N2C(C(=O)O)=C([C@H]3CCCO3)S[C@H]12
a: 5.96
